The measurements presented in this section are drawn from patent US9409952B2.

# Run description: PAMPA (parallel artificial membrane permeability assay)
# Assay type: in vitro ADME
# Condition info: PAMPA; membrane permeation rate (Pe); 50 mM MOPSO buffer pH 6.5 with 5.0% glycocholic acid, 37° C., 18 hours; read-out: iPAMPA Pe
Starred links: 1 amine or outer side, 2 acyl side, 3 side chain; linkers in the order of their positions; H or OH if unused. Positions of bridges follow the written chain, without caps; N, C: chain ends. Non-standard residues stand in square brackets, D forms with d. Residues, ends and D or L forms follow the SMILES beside them. *: point of attachment. NMeF = CN[C@@H](Cc1ccccc1)C(=O)O; NMeGABA = CN(CCCC(=O)[*:2])[*:1]; NMeL = CN[C@@H](CC(C)C)C(=O)O; NMeA = CN[C@@H](C)C(=O)O; Piperidide = C1CCN(*)CC1; Sar = CNCC(=O)O
Quantity kind: Papp at 18 hours, 50 µM (×10⁻⁶ cm/s)
Respond with the bare value in ×10⁻⁶ cm/s.

The compound listed as CC(C)C[C@H]1C(=O)N[C@@H]([C@@H](C)O)C(=O)N[C@H](C(=O)N(C)[C@@H](Cc2ccccc2)C(=O)N(C)[C@@H](Cc2ccccc2)C(=O)N[C@@H](C)C(=O)N2CCCCC2)CC(=O)N(C)CCCC(=O)N(C)[C@@H](C)C(=O)N(C)[C@@H](Cc2ccccc2)C(=O)N[C@@H](C(C)C)C(=O)N(C)[C@@H](CC(C)C)C(=O)N(C)CC(=O)N1C [DP-404] ([NMeGABA][NMeA][NMeF]V[NMeL][Sar][NMeL]TD[NMeF][NMeF]A-Piperidide; lactam N-9) shows Papp at 18 hours, 50 µM equal to 20

* * *

# Run description: Metabolic stability in human hepatic microsome
# Format: in vitro ADME
# Condition info: microsomes, pH 7.4; human hepatic microsome, NADPH(+); read-out: CL NADPH(+)
Starred links: 1 amine or outer side, 2 acyl side, 3 side chain; linkers in the order of their positions; H or OH if unused. Positions of bridges follow the written chain, without caps; N, C: chain ends. Non-standard residues stand in square brackets, D forms with d. Residues, ends and D or L forms follow the SMILES beside them. *: point of attachment. NMeF = CN[C@@H](Cc1ccccc1)C(=O)O; NMeI = CC[C@H](C)[C@H](NC)C(=O)O; NMeβAla = CN(CCC(=O)[*:2])[*:1]; NMeL = CN[C@@H](CC(C)C)C(=O)O; NMeV = CN[C@H](C(=O)O)C(C)C; NMeA = CN[C@@H](C)C(=O)O; Piperidide = C1CCN(*)CC1
Quantity kind: microsomal CLint at 1 uM
Remember to follow the number with its unit.

The compound listed as CC[C@H](C)[C@H]1C(=O)N[C@@H](C)C(=O)N[C@@H](Cc2ccccc2)C(=O)N(C)[C@@H](Cc2ccccc2)C(=O)N[C@@H]([C@@H](C)O)C(=O)N(C)[C@@H](C)C(=O)N[C@@H](CC(C)C)C(=O)N[C@H](C(=O)N2CCCCC2)CC(=O)N[C@H](C(C)C)C(=O)N(C)[C@@H](C(C)C)C(=O)NCC(=O)N(C)[C@@H](CC(C)C)C(=O)N1C [DP-217] ([dV][NMeV]G[NMeL][NMeI]AF[NMeF]T[NMeA]LD-Piperidide; lactam N-12) shows microsomal CLint at 1 uM equal to 37 µL/min/mg

The compound listed as CC(C)C[C@H]1C(=O)N(C)[C@@H](Cc2ccccc2)C(=O)N(C)[C@@H](CC(C)C)C(=O)N[C@@H](Cc2ccccc2)C(=O)N[C@@H]([C@@H](C)O)C(=O)N(C)[C@@H](C)C(=O)N[C@H](C(=O)N2CCCCC2)CC(=O)N(C)CCC(=O)N[C@@H](C)C(=O)N1C [DP-153] ([NMeβAla]A[NMeL][NMeF][NMeL]FT[NMeA]D-Piperidide; lactam N-9) shows microsomal CLint at 1 uM equal to 179 µL/min/mg
